experiment: Selectivity index, ratio of LD50 for human WI-38 cells to LD50 for human MCF7 cells assessed as inhibition of cell proliferation by MTT assay; format: toxicity; details: WI-38 cells and MCF7 cells, read-out: Selectivity Index
endpoint.name: selectivity ratio
Kindly provide the number alone.

Sample records with selectivity ratio:
compound: O=C(c1ccco1)[C@@H]1Cc2c(ccc3ccccc23)O1
selectivity ratio: 1.38

compound: Cc1ccc(C(=O)[C@@H]2Cc3c(ccc4ccccc34)O2)cc1
selectivity ratio: 3.41

[ask] Fill blank: measured selectivity ratio of the compound `COc1cc([C@H]2c3c(ccc4ccccc34)O[C@@H]2C(=O)c2ccccc2)cc(OC)c1OC` is ____.
[reply] 1.49

[ask] Next compound up: `O=C(c1ccccc1)[C@H]1Oc2ccc3ccccc3c2[C@@H]1c1ccc(Cl)cc1`
[reply] 1.05

[ask] Next compound up: `Cc1ccc([C@H]2c3c(ccc4ccccc34)O[C@@H]2C(=O)c2ccccc2)cc1`
[reply] 1.01

[ask] Next compound up: `N#Cc1ccc([C@H]2c3c(ccc4ccccc34)O[C@@H]2C(=O)c2ccccc2)cc1`
[reply] 1.41

[ask] Next compound up: COc1cc([C@@H]2c3cc4c(cc3[C@@H](O[C@@H]3O[C@@H]5CO[C@@H](C)O[C@H]5[C@H](O)[C@H]3O)[C@H]3COC(=O)[C@H]23)OCO4)cc(OC)c1O [ETOPOSIDE]
[reply] 0.65

[ask] Next compound up: `O=C(c1ccccc1)[C@H]1Oc2ccc3ccccc3c2[C@@H]1c1ccccc1`
[reply] 1.3

Data provenance is ChEMBL document CHEMBL4725336.
